Target: Nav1.7 (or SCN9A) channel (Homo sapiens)
Construct: expressed in transfected cells
Assay: Nav1.7 PatchXpress 7000 automated electrophysiology assay (HEK cells stably expressing hSCN9A)
Assay type: cell-based
Conditions: voltage-clamped at V1/2 of inactivation, read-out: Nav1.7 EIC50
Measurement Name: IC50 (nM)

>>> measured_result("Cc1cc(F)ccc1Oc1ccc(C(=O)NS(C)(=O)=O)cc1")
20000
>>> measured_result("CCS(=O)(=O)NC(=O)c1ccc(Oc2ccc(F)cc2)cc1")
6400
>>> measured_result("Cc1ccc(Oc2ccc(C(=O)NS(C)(=O)=O)cc2)c(C)c1")
16000
>>> measured_result("CS(=O)(=O)NC(=O)c1ccc(Oc2ccc(Cl)c(C(F)(F)F)c2)cc1F")
850
>>> measured_result("CC(C)c1ccccc1Oc1ccc(C(=O)NS(C)(=O)=O)cc1")
21000

I = CS(=O)(=O)NC(=O)c1ccc(Oc2ccc(F)cc2)c(Cl)c1
II = CC(C)c1ccc(Oc2ccc(C(=O)NS(C)(=O)=O)cc2)cc1
Exercise: For this pair, I and II , which shows a numerically higher IC50? Field: selected label. Fill in the label of the entry you choose.
Solution: II
(II: 1200 nM, I: 660 nM)

a = CS(=O)(=O)NC(=O)c1cc(F)c(Oc2ccc(Cl)c(OC(F)F)c2)cc1F
b = Cc1ccc(Oc2cc(F)c(C(=O)NS(C)(=O)=O)cc2F)cc1C
Exercise: Sort a and b by IC50 descending and give the first. Reply briefly: the label of your chosen item.
Solution: b
(b: 2500 nM, a: 520 nM)

====

Biological target: Nav1.7 (or SCN9A) channel (Homo sapiens, UniProt Q15858)
Construct: expressed in transfected cells
Sequence (Q15858 whole entry): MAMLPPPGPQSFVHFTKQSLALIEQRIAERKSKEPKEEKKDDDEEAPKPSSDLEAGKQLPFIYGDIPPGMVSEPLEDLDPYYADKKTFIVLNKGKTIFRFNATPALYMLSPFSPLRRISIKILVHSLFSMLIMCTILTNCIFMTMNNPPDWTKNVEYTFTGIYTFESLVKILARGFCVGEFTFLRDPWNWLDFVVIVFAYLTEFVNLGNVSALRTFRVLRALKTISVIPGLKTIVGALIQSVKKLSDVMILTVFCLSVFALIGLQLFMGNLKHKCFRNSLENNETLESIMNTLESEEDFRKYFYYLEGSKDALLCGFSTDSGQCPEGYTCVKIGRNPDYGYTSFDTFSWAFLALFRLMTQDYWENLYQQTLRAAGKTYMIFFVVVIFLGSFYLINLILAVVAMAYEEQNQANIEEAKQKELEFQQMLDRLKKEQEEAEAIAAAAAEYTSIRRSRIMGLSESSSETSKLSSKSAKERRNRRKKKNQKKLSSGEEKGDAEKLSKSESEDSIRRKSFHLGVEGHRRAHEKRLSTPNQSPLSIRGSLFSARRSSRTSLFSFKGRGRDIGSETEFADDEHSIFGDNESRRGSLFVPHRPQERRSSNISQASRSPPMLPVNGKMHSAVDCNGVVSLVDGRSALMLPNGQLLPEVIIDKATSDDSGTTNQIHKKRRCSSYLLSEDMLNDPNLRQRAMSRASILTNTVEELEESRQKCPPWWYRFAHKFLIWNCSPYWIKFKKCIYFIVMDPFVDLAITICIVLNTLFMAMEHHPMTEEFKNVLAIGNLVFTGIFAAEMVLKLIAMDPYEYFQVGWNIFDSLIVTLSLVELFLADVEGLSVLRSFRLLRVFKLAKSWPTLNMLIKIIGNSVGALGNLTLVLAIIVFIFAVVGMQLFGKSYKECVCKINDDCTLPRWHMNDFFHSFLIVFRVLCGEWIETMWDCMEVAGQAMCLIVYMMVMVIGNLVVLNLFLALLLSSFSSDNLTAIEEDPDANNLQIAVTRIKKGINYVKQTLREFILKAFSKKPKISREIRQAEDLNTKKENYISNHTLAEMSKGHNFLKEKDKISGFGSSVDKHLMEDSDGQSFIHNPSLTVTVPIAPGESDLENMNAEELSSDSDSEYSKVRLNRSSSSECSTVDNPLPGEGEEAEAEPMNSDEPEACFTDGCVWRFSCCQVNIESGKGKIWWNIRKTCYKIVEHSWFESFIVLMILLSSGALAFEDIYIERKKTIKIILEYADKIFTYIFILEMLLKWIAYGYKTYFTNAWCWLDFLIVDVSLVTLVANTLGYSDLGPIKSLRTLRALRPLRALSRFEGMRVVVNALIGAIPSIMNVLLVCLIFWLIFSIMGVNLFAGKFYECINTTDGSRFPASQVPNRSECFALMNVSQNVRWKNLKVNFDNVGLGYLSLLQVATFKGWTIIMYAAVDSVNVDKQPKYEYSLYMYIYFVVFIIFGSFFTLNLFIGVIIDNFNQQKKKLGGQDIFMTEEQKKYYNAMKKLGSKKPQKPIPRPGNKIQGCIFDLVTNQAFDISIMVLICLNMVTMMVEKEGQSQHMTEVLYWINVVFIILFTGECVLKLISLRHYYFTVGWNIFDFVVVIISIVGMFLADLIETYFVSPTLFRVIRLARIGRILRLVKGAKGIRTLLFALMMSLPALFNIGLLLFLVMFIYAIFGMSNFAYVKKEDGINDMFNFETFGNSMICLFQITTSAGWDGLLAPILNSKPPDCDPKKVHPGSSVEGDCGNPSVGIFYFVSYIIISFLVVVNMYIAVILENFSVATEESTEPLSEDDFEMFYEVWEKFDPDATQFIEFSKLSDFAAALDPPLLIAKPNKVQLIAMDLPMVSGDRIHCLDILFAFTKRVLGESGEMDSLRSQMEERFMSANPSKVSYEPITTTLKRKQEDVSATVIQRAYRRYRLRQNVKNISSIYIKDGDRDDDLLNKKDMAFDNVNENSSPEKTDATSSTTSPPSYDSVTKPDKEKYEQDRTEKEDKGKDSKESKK
Test: Nav1.7 PatchXpress 7000 automated electrophysiology assay (HEK cells stably expressing hSCN9A)
Format: cell-based
Conditions: voltage-clamped at V1/2 of inactivation, read-out: Nav1.7 EIC50
Measurement Name: IC50 (µM)

Illustrative cases are given below, each with its answer.
>>> measured_result("CS(=O)(=O)NC(=O)c1ccc(Nc2cccc(C(F)(F)F)c2)cc1 [Example 321]")
0.32
>>> measured_result("CS(=O)(=O)NC(=O)c1ccc(Oc2cc(F)ccc2F)cc1 [Example 166]")
17
>>> measured_result("CS(=O)(=O)NC(=O)c1cc(Cl)c(Oc2ccc(OC(F)F)c(Cl)c2)cc1F [Example 51]")
0.26
>>> measured_result("Cc1ccc(Oc2ccc(C(=O)NS(C)(=O)=O)cc2)cc1C [Example 167]")
12
>>> measured_result("CCc1cc(Cl)ccc1Oc1cc(F)c(C(=O)NS(C)(=O)=O)cc1F [Example 3]")
1.7
>>> measured_result("CCS(=O)(=O)NC(=O)c1ccc(Oc2ccccc2)cc1 [Example 307, N-(ethylsulfonyl)-4-phenoxybenzamide]")
9.7

I = CS(=O)(=O)NC(=O)c1cc(Cl)c(Oc2ccc(C#N)cc2)cc1F [Example 286]
II = CS(=O)(=O)NC(=O)c1ccc(Oc2cccc(F)c2)c(Cl)c1 [Example 262]
Exercise: Lower IC50: I or II ? Use the label to indicate which entry you chose.
Solution: II
(II: 1.1 µM, I: 3.4 µM)

====

Target: Nav1.7 (or SCN9A) channel (Homo sapiens, UniProt Q15858)
Construct: expressed in transfected cells
Assay: Nav1.7 PatchXpress 7000 automated electrophysiology assay (HEK cells stably expressing hSCN9A)
Format: cell-based
Settings: voltage-clamped at V1/2 of inactivation, read-out: Nav1.7 EIC50
Measurement Name: IC50 (µM)

a = Cc1cc(Oc2ccc(C(=O)NS(C)(=O)=O)cc2)ccc1Cl
b = CC(C)S(=O)(=O)NC(=O)c1ccc(Oc2ccc(Cl)c(C(F)(F)F)c2)cc1
c = CS(=O)(=O)NC(=O)c1ccc(Oc2ccccc2C(F)(F)F)c(Cl)c1
d = Cc1ccc(Oc2ccc(C(=O)NS(C)(=O)=O)cc2)c(Cl)c1
Exercise: Arrange the above in rising order of IC50. In plain terms: list the labels in the order you were asked to.
Solution: b, a, c, d
(b: 0.85 µM, a: 1.9 µM, c: 6.6 µM, d: 25 µM)

====

Molecular target: Nav1.7 (or SCN9A) channel (Homo sapiens, UniProt Q15858)
Construct: expressed in transfected cells
Experiment: Nav1.7 PatchXpress 7000 automated electrophysiology assay (HEK cells stably expressing hSCN9A)
Type: cell-based
Details: voltage-clamped at V1/2 of inactivation, read-out: Nav1.7 EIC50
Measurement Name: IC50 (nM)

1 = COc1cc(Oc2ccc(F)c(Cl)c2)ccc1C(=O)NS(C)(=O)=O
2 = CS(=O)(=O)NC(=O)c1cc(F)c(Oc2ccc(Cl)cc2OC(F)(F)F)cc1F
Exercise: // compare measured IC50 between 1 and 2 ; output the lower one Returns: label corresponding to the selected item.
Solution: 2
(2: 710 nM, 1: 8200 nM)

a = CS(=O)(=O)NC(=O)c1cc(Cl)c(Oc2ccc(OC(F)(F)F)c(Cl)c2)cc1F
b = COc1cc(C(=O)NS(C)(=O)=O)ccc1Oc1ccc(Cl)c(Cl)c1
c = CS(=O)(=O)NC(=O)c1cc(F)c(Oc2ccccc2F)cc1F
Exercise: Order each entry by recorded IC50, climbing from the minimum. Please list the labels in the order you were asked to rank them.
Solution: a, b, c

P = CS(=O)(=O)NC(=O)c1ccc(Oc2ccc(Cl)c(Cl)c2)cc1F
Q = CS(=O)(=O)NC(=O)c1cc(Cl)c(Oc2ccc(F)cc2)cc1F
R = CS(=O)(=O)NC(=O)c1ccc(Oc2cccc(F)c2)c(C#N)c1
S = COc1cccc(Oc2ccc(C(=O)NS(C)(=O)=O)cc2Cl)c1
T = COc1cc(Cl)c(Cl)cc1Oc1cc(F)c(C(=O)NS(C)(=O)=O)cc1F
Exercise: List the 5 entries from lowest IC50 to highest IC50 value. Submit the labels in the order that the ranking request calls for.
Solution: Q, P, S, T, R
(Q: 390 nM, P: 860 nM, S: 1400 nM, T: 2800 nM, R: 8700 nM)

P = CS(=O)(=O)NC(=O)c1cc(F)c(Oc2ccc(C(F)(F)F)c(Cl)c2)cc1F
Q = CS(=O)(=O)NC(=O)c1cc(Cl)c(Oc2ccc(Cl)c(Cl)c2)cc1F
R = CS(=O)(=O)NC(=O)c1ccc(Oc2cccc(Cl)c2)c(F)c1
S = Cc1ccc(C)c(Oc2ccc(C(=O)NS(C)(=O)=O)cc2)c1
Exercise: List the 4 entries from lowest IC50 to highest IC50 value. Form entry: labels listed in requested order.
Solution: Q, P, R, S

====

Molecular target: Nav1.7 (or SCN9A) channel (Homo sapiens, UniProt Q15858)
Construct: expressed in transfected cells
Assay: Nav1.7 PatchXpress 7000 automated electrophysiology assay (HEK cells stably expressing hSCN9A)
Type: cell-based
Settings: voltage-clamped at V1/2 of inactivation, read-out: Nav1.7 EIC50
Measurement Name: IC50 (µM)

Some solved entries appear below for comparison.
>>> measured_result("CS(=O)(=O)NC(=O)c1ccc(Sc2cccc(OC(F)(F)F)c2)cc1")
5.6
>>> measured_result("CS(=O)(=O)NC(=O)c1ccc(Oc2ccc(F)cc2)cc1")
18
>>> measured_result("CS(=O)(=O)NC(=O)c1ccc(Oc2ccc(Cl)c(F)c2)cc1")
1.8

P = COc1cc(Cl)cc(Oc2cc(F)c(C(=O)NS(C)(=O)=O)cc2F)c1
Q = CS(=O)(=O)NC(=O)c1ccc(Oc2cc(F)cc(F)c2)cc1
Exercise: In the pair P and Q , the larger recorded IC50 belongs to which? Write down the label of the entry you select.
Solution: Q

====

Target: Nav1.7 (or SCN9A) channel (Homo sapiens, UniProt Q15858)
Construct: expressed in transfected cells
Assay: Nav1.7 PatchXpress 7000 automated electrophysiology assay (HEK cells stably expressing hSCN9A)
Type: cell-based
Conditions: voltage-clamped at V1/2 of inactivation, read-out: Nav1.7 EIC50
Measurement Name: IC50 (µM)

>>> measured_result("CS(=O)(=O)NC(=O)c1ccc(Oc2ccccc2F)c(Cl)c1 [Example 282]")
1.2
>>> measured_result("CS(=O)(=O)NC(=O)c1ccc(Sc2ccc(Cl)c(Cl)c2)cc1 [Example 317]")
3.5
>>> measured_result("Cc1cc(Cl)cc(Oc2cc(F)c(C(=O)NS(C)(=O)=O)cc2F)c1 [Example 155]")
5.4
>>> measured_result("CS(=O)(=O)NC(=O)c1ccc(Oc2cccc3ccccc23)c(Cl)c1 [Example 258]")
2.1
>>> measured_result("COc1cc(Oc2ccc(Cl)cc2OC(F)(F)F)ccc1C(=O)NS(C)(=O)=O [Example 39]")
9.3
>>> measured_result("Cc1cc(C)cc(Oc2ccc(C(=O)NS(C)(=O)=O)cc2)c1 [Example 174]")
20
>>> measured_result("Cc1ccc(Cl)c(Oc2ccc(C(=O)NS(C)(=O)=O)cc2)c1 [Example 180]")
32
>>> measured_result("Cc1ccc(F)c(Oc2cc(F)c(C(=O)NS(C)(=O)=O)cc2F)c1 [Example 122]")
4.4
>>> measured_result("CS(=O)(=O)NC(=O)c1cc(F)c(Oc2ccccc2OC(F)(F)F)cc1F [Example 103]")
3.2
>>> measured_result("COc1ccc(Oc2ccc(C(=O)NS(C)(=O)=O)cc2)cc1 [Example 186]")
34

A = Cc1ccc(Oc2cc(F)c(C(=O)NS(C)(=O)=O)cc2Cl)cc1 [Example 291]
B = Cc1ccccc1Oc1cc(F)c(C(=O)NS(C)(=O)=O)cc1Cl [Example 297]
Exercise: Just tell me: smaller IC50 value, A or B ? Your answer should be the label of the entry you select.
Solution: A
(A: 0.42 µM, B: 2.3 µM)
